Biological target: G-protein coupled receptor 35 (Homo sapiens, UniProt Q9HC97)
Sequence (Q9HC97 whole entry, the tested form may be a part): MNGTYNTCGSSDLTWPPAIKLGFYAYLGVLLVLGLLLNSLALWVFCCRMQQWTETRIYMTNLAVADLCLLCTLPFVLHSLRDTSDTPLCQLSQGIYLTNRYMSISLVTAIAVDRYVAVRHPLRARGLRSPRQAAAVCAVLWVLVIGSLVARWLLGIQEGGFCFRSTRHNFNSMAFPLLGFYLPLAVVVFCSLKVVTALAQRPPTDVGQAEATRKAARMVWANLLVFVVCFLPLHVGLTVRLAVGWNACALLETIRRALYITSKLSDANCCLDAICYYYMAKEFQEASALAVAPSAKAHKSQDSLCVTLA
Assay: Agonist activity at GPR35 in human U20S cells expressing beta-lactamase and GPR35-GA14-VP16 transcription factor fusion protein assessed as transcriptional activation after 5 hrs by tango beta-arrestin translocation reporter assay relative to zaprinast
Format: functional, cell-based
Details: U2OS
The source made the active and inactive calls. The rule behind the calls is not given here.
measuredMetric: Activity

CCCCCCCCCCCc1c(C(=O)O)sc2c(Br)csc12    55%
CC1=C(C#N)C(=C(C#N)C#N)OC12CCCCC2    Active
Cc1c(C(=O)O)sc2c(Br)csc12    104%
CCCCCCc1c(C(=O)O)sc2ccsc12    20%

Batch lookup, Activity per entry.
1. CC1=C(C#N)C(=C(C#N)C#N)OC1(C)c1ccc(Cl)c(Cl)c1 (stereo unspecified)
2. CCCCCCc1csc2cc(C(=O)O)sc12
3. CC1=C(C#N)C(=C(C#N)C#N)OC1(c1ccccc1)C(F)(F)F (stereo unspecified)
4. Cc1csc2c1sc1cc(C(=O)O)sc12
5. CC1=C(C#N)C(=C(C#N)C#N)OC1(C)C
6. CCCCCCCCc1c(C(=O)O)sc2c(Br)csc12

["29%", "9%", "14%", "19%", "Active", "8%"]
